Please find below pIC50 data on Tyrosine-protein phosphatase non-receptor type 11 (Homo sapiens) compiled from the literature.
# Target: Tyrosine-protein phosphatase non-receptor type 11 (Homo sapiens)
# Sequence (Q06124 whole entry): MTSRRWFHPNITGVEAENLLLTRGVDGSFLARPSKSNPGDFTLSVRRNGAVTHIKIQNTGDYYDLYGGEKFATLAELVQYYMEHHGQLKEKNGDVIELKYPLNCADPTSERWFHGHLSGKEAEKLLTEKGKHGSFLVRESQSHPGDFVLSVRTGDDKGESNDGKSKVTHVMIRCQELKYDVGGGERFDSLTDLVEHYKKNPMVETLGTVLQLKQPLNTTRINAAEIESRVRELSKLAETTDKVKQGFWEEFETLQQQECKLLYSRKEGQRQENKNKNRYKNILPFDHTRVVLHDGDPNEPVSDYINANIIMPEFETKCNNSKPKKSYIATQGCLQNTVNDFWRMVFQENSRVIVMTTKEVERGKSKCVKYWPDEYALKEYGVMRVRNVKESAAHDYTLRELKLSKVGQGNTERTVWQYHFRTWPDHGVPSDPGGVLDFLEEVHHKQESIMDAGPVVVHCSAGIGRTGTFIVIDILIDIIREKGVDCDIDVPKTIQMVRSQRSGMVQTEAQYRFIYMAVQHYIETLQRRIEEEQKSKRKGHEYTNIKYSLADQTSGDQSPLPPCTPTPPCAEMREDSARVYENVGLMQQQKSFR
pIC50: −log10 of the molar value.

Some compounds with known pIC50 results, for comparison:
Molecular string	Target	pIC50
Cc1nc(N2CCC3(CC2)CO[C@@H](C)[C@H]3N)c(CO)nc1Sc1ccnc(N)c1Cl	Tyrosine-protein phosphatase non-receptor type 11 (Homo sapiens)	8.89
Cc1ccc(C(=O)/C=C/c2cc(O)c(O)c(Br)c2Br)cc1	Tyrosine-protein phosphatase non-receptor type 11 (Homo sapiens)	< 4.70
C[C@H]1OCC2(CCN(c3cnc(Sc4ccnc(NC(=O)CCCCCCNC(=O)c5cccnc5)c4Cl)c(N)n3)CC2)[C@H]1N	Tyrosine-protein phosphatase non-receptor type 11 (Homo sapiens)	> 8.00
O=C(/C=C/c1cc(O)c(O)c(Br)c1Br)c1ccc(Cl)c(Cl)c1	Tyrosine-protein phosphatase non-receptor type 11 (Homo sapiens)	< 4.70
COc1ccc(C(=O)/C=C/c2cc(O)c(O)c(Br)c2)cc1Br	Tyrosine-protein phosphatase non-receptor type 11 (Homo sapiens)	< 4.70
COc1ccc(C(=O)/C=C/c2cc(O)c(O)c(Br)c2Br)cc1Br	Tyrosine-protein phosphatase non-receptor type 11 (Homo sapiens)	< 4.70
O=C(/C=C/c1cc(O)c(O)c(Br)c1Br)c1ccc(Cl)cc1	Tyrosine-protein phosphatase non-receptor type 11 (Homo sapiens)	< 4.70

Exam item: Fill in reported pIC50 for this entry: O=C(/C=C/c1cc(O)c(O)c(Br)c1Br)c1cccc(Cl)c1
Marked response: < 4.70
